- TEST_TARGET: T1, ZFP SBS#1258 (synthetic, UniProt P08047)
- T1 chain: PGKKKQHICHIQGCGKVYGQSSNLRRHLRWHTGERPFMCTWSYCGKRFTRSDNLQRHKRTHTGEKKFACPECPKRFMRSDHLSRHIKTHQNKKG
- PROCEDURE_DETAILS: EMSA
- PARTICULARS: tags: MBP fusion
VALUE_KIND: Kd (nM)
Write the answer as a number in nM, unit excluded.

May I ask what Kd has been recorded for GGGGAGGAT (dsDNA) DNA 1: GGGGAGGAT DNA 2: ATCCTCCCC ?
2

Taken from patent US20030068675.
